A collection of compounds and their measured melting point

Some compounds with known melting point results, for comparison:
COc1ccc(-c2ccccc2)cc1F
84.5 to 86 °C
OCC1OC(n2cnc3c(Nc4ccccc4)cc(Cl)nc32)C(O)C1O (centres undefined)
157 to 160 °C
OCC12CO[C@@H](c3ccc(F)cc3)N1[C@H](c1ccc(F)cc1)OC2
115 °C
C=C(Cl)CSC(=S)Nc1ccc(Cl)cc1C
88 to 90.5 °C
CCOC(=O)c1c(-c2ccc(Cl)cc2)[nH]c(C(F)(F)F)c1C(F)(F)F
138 to 140 °C

Task: What melting point value was documented for this compound, `COC(=O)c1ccccc1C(=O)Nc1cc(C(F)(F)C(F)(F)F)on1` ?
Result: 97 to 100 °C

Task: What melting point value was documented for this compound, `CCOC(=O)C1=C(NC(=O)Nc2cc(C(=O)OC(C)C)c(Br)cc2F)CCC1` ?
Result: 150 to 154 °C

Task: What melting point value was documented for this compound, `CCOCc1cc2cc(Br)ccc2oc1=Nc1ccccc1` ?
Result: 78 to 80 °C

Task: What melting point value was documented for this compound, `CNS(=O)(=O)c1c[nH]c(-c2ccc(Cl)cc2)n1` ?
Result: 246 to 248 °C

Task: What melting point value was documented for this compound, `CCOC(=O)c1ccc2nc(NC)[nH]c2c1` ?
Result: 247 to 249 °C

Task: What melting point value was documented for this compound, O=C(O)c1c(Cc2cc3c(cc2Cl)OCO3)c(-c2ccccn2)nn1CC1CCC(C(=O)O)CC1 (centres undefined) ?
Result: 261 °C

Task: What melting point value was documented for this compound, `Cc1ccc(Oc2ccccc2C#N)c(O)c1` ?
Result: 118 to 119 °C

Task: What melting point value was documented for this compound, `CC(=O)c1ccc(Oc2ccc(O)cc2)cc1` ?
Result: 159 to 161 °C

Task: What melting point value was documented for this compound, `NC(=O)c1cn(Cc2ccccc2F)cn1` ?
Result: 204 to 205 °C

====

test_readout: melting point

Some compounds with known melting point results, for comparison:
CCCc1nc2cnc3cc(Br)ccc3c2n1CC1CCN(C(=O)OC(C)(C)C)CC1
215 to 216 °C
Cc1cc(C)c(/C=C2\C(=O)N(COC(=O)CCC(=O)O)c3ccccc32)[nH]1
160 to 163 °C
CC(=O)NN=C(C)c1ccc(C)nc1
178 °C

Task: What melting point value was documented for this compound, `CCCn1c(=O)c2[nH]c(-c3nn(CC(=O)Nc4ccc(Cl)cc4)c(C)c3Br)nc2n(CCC)c1=O` ?
Result: 298 to 299 °C

Task: What melting point value was documented for this compound, `COC(=O)c1ccccc1S(=O)(=O)NC(=O)c1cnc2c(C)cc(C)nn12` ?
Result: 210 to 212 °C

Task: What melting point value was documented for this compound, `CCOc1ccc(C(=O)OC)cc1C(=N)N` ?
Result: 133 to 135 °C

Task: What melting point value was documented for this compound, `CCCCn1c(=O)n(CCN2CCC(C(=O)c3ccc(F)cc3)CC2)c(=O)c2cscc21` ?
Result: 126 to 127 °C

Task: What melting point value was documented for this compound, `c1ccc(Nc2nc(-c3ccco3)nc3ccccc23)cc1` ?
Result: 183 to 184 °C

====

test_readout: melting point

CCOC(=O)c1cc(C)n(-c2cccc(C(=O)O)c2)c1-c1ccccc1
161 to 163 °C
CCCc1cn2cc(C(=O)OC)nc2s1
155 to 156 °C
COC(=O)c1ccccc1N(c1ccccc1)C1(c2ccc(N(C)C)cc2)OC(=O)c2ccccc21 (stereo unspecified)
92.5 to 102 °C
CCCCCS(=O)(=O)NC(=O)CCc1ccc(OC(C)C)cc1Oc1ncc(C(F)(F)F)cc1Cl
94 to 95 °C
Oc1ccccc1NC(=S)NCc1ccncc1
180 °C

Task: What melting point value was documented for this compound, CCC1=CC=CC(CC)(c2ccncc2)C1c1c(OC(=O)C(C)(C)C)n2n(c1=O)CCOCC2 (stereo unspecified) ?
Result: 146 to 147 °C
